Where do the numbers come from? From patent US6001849A.

- tgt: α4 and β2 nicotinic acetylcholine subunits (K177 cells) (Homo sapiens, UniProt P17787+P43681)
- Construct: expressed in transfected cells
- Sequence (P43681 29-627 limits assumed): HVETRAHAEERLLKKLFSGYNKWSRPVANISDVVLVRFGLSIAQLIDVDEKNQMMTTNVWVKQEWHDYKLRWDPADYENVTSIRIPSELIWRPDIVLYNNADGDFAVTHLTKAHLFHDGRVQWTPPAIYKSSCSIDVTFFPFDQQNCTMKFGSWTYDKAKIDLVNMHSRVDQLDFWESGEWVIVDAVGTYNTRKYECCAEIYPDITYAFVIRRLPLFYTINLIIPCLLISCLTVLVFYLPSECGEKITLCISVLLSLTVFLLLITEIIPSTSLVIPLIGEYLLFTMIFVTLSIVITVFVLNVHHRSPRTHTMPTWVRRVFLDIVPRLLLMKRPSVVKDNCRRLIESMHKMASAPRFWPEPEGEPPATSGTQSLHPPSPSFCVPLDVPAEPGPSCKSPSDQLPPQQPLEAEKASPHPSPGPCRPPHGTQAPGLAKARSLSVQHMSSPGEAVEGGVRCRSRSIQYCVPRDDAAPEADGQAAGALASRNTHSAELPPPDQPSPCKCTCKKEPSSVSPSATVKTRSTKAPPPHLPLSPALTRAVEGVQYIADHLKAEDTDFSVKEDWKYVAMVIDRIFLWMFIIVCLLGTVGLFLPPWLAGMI
- Sequence (P17787 26-502): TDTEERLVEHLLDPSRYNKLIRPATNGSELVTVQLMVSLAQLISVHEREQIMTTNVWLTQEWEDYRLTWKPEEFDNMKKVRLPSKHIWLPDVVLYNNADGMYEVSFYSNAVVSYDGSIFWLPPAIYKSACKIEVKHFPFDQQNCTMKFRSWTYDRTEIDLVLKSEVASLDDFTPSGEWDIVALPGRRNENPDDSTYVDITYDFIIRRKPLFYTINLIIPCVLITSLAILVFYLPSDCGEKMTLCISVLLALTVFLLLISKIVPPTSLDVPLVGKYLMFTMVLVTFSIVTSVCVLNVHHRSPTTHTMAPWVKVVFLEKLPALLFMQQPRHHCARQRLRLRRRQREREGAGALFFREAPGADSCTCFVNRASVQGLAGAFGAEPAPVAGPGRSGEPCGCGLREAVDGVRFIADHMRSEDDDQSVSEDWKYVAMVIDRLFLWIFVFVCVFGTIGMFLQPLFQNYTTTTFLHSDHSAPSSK
- experiment description: 86Rb+ efflux assay in K177 cells (HEK 293 stably transfected with α4 and β2 nicotinic acetylcholine subunits)
- Assay type: cell-based
- measurement conditions: K177; Table 1; maximal response, percent relative to 100 μM (S)-nicotine; read-out: K177 % max
- Procedure: B. Protocols for the Determination of Functional Effects of Nicotinic Acetylcholine Receptor Ligands on Synaptic Transmission Cells of the IMR-32 human neuroblastoma clonal cell line (ATCC, Rockville, Md.) were maintained in a log phase of growth according to established procedures (Lukas, R. J., J. Pharmacol. Exp. Ther., 265: 294-302, 1993). Experimental cells were seeded at a density of 500,000 cells/mL into a 24-well tissue culture dish. […]
Counter-ions that a name gives are not always drawn.
Threshold-based label: Emax under 10% gives TRUE, Emax not under 10% gives FALSE.

Example entries and their recorded answers appear below.
Cl.c1cnc2cc(C34CCCN3CCC4)oc2c1 [Example 15, hydrochloride] : TRUE
Brc1ccc2oc([C@H]3CCCN3)cc2n1 [Example 33, hydrochloride] : TRUE
CN1CCC[C@H]1c1cc2ncccc2o1.Cl.Cl [Example 1, dihydrochloride] : FALSE
Clc1cnc2cc([C@H]3CCCN3)oc2c1 [Example 31, hydrochloride] : FALSE

# check: Emax < 10% for Cc1ccc2oc(C34CCCN3CCC4)cc2n1 [Example 16]
FALSE

* * *

- tgt: neuronal nicotinic acetylcholine receptors
- experiment description: [3H]-cytisine ligand-receptor binding assay (crude synaptic membranes from whole rat brain)
- measurement conditions: Table 1; [3H]-cytisine 1.25 nM, 4° C., 60 min; Ki by Cheng and Prusoff; read-out: [^3 H]-Cyt Binding
pKi: −log10 of the molar value. Counter-ions that a name gives are not always drawn.
pKi vs 8: at or above is y, below is n.

Cl.Clc1cc2oc(C34CCCN3CCC4)cc2nc1Cl [Example 38, hydrochloride] : y
CN1CCC[C@H]1c1cc2ncc(Br)cc2o1 [Example 47, dihydrochloride] : n
CN1CCC[C@H]1c1cc2ncc(Cl)cc2o1 : n
CN1CCC[C@H]1c1cc2cnccc2o1 [Example 37, dihydrochloride] : n

Answer whether pKi of Cl.Clc1nc2cc([C@H]3CCCN3)oc2cc1Br [Example 49, hydrochloride] is greater than or equal to 8.
y

Please answer likewise for Clc1cc2oc([C@@H]3CCCN3)cc2nc1Cl [Example 25, hydrochloride]
n

Field entry: CN1CCC[C@H]1c1cc2ccncc2o1 [Example 10, dihydrochloride]
n

Could you do the same for Clc1cc2oc([C@H]3N[C@@H]4CC[C@H]3C4)cc2nc1Cl [Example 45, dihydrochloride] , please?
n

Here is the next compound: c1cnc2cc(C34CCCN3CCC4)sc2c1 [Example 24, hydrochloride]
y

Same lookup for CN1CCC[C@H]1c1cc2nc(Cl)c(Br)cc2o1.Cl.Cl [Example 48, dihydrochloride] , please.
y

Same thing, different compound: c1cnc2cc([C@H]3CC[C@@H]4CCCN43)oc2c1 [Example 20, dihydrochloride]
n

# iterate: Cl.Clc1cc2oc([C@H]3CCCN3)cc2nc1Cl [Example 39, hydrochloride]
y

Note, next up: CN1CCC[C@H]1c1cc2ncccc2o1.Cl.Cl [Example 1, dihydrochloride]
y

* * *

- tgt: neuronal nicotinic acetylcholine receptors
- experiment description: [3H]-cytisine ligand-receptor binding assay (crude synaptic membranes from whole rat brain)
- measurement conditions: Table 1; [3H]-cytisine 1.25 nM, 4° C., 60 min; Ki by Cheng and Prusoff; read-out: [^3 H]-Cyt Binding
Counter-ions that a name gives are not always drawn.
Classify on Ki using b0: < 30 nM; b1: ≥ 30 nM and < 100 nM; b2: ≥ 100 nM

As a guide, the following entries are already answered.
CN1CCC[C@@H]1c1cc2ncccc2o1 [Example 4, dihydrochloride] : b0
c1cc2cc(C34CCCN3CCC4)oc2cn1 [Example 17, dihydrochloride] : b1
Cl.Cl.c1cc2cc([C@@H]3CCCN3)oc2cn1 [Example 9, dihydrochloride] : b2
Cc1ccc2oc([C@H]3CCCN3)cc2n1.Cl [Example 29, hydrochloride] : b0

Which category does the recorded Ki put Cc1ccc2sc(C34CCCN3CCC4)cc2n1 [Example 27, dihydrochloride] in?
b0

What do you have for "CN1CCC[C@H]1c1cc2cc(Cl)cnc2o1" ?
b2

Same again, this time with "CN1CCC[C@@H]1c1cc2nc(Cl)ccc2o1"
b1

Now the same for CN1CCC[C@@H]1c1cc2nc(Cl)c(Br)cc2o1 [Example 50, hydrochloride]
b1

* * *

Below: a set of entries, each annotated with reported Emax.
- tgt: α4 and β2 nicotinic acetylcholine subunits (K177 cells) (Homo sapiens, UniProt P17787+P43681)
- Construct: expressed in transfected cells
- experiment description: 86Rb+ efflux assay in K177 cells (HEK 293 stably transfected with α4 and β2 nicotinic acetylcholine subunits)
- Type: cell-based
- measurement conditions: K177; Table 1; maximal response, percent relative to 100 μM (S)-nicotine; read-out: K177 % max
Where a name gives a salt, the structure may show the parent alone.
Reply with just the number (in %).

c1cnc2cc([C@H]3C[C@@H]4CC[C@H]3N4)oc2c1 (relative stereo) [Example 52, dihydrochloride] : 36
Cc1ccc2oc([C@@H]3CCCN3C)cc2n1.Cl.Cl [Example 6, dihydrochloride] : 68
Cc1ccc2oc([C@H]3CCCN3)cc2n1.Cl [Example 29, hydrochloride] : 0

Tell me the measured Emax of CN1CCC[C@H]1c1cc2nc(Cl)c(Cl)cc2o1.Cl [Example 26, hydrochloride] , please.
6

Repeat for the following compound: CN1CCC[C@H]1c1cc2nc(Cl)c(Br)cc2o1.Cl.Cl [Example 48, dihydrochloride]
0

Follow-up item: c1cnc2cc(C34CCCN3CCC4)sc2c1 [Example 24, hydrochloride]
14

Entry to check: Cl.Clc1cc2oc([C@H]3CCCN3)cc2nc1Cl [Example 39, hydrochloride]
39

Also, Cl.Clc1cc2oc(C34CCCN3CCC4)cc2nc1Cl [Example 38, hydrochloride] please.
0

Repeat for the following compound: Cl.Cl.c1cnc2cc([C@@H]3CCCN3)oc2c1 [Example 2, dihydrochloride]
0

Continue with CN1[C@@H]2CC[C@@H](C2)[C@H]1c1cc2ncccc2o1 [Example 42, dihydrochloride]
29

Check Cl.Cl.c1cnc2cc([C@H]3CCCN3)oc2c1 [Example 3, dihydrochloride] too.
34

Another: CN1CCC[C@@H]1c1cc2ncccc2o1 [Example 4, dihydrochloride]
63

Another compound to check: Clc1ccc2oc([C@H]3CCCN3)cc2n1 [Example 35, hydrochloride]
61

Same for CN1CCC[C@H]1c1cc2nc(Cl)ccc2o1 [Example 12]
41

* * *

- tgt: neuronal nicotinic acetylcholine receptors
- experiment description: [3H]-cytisine ligand-receptor binding assay (crude synaptic membranes from whole rat brain)
- measurement conditions: Table 1; [3H]-cytisine 1.25 nM, 4° C., 60 min; Ki by Cheng and Prusoff; read-out: [^3 H]-Cyt Binding
Structures can show the parent of a compound that is named as a salt.
Listed below: Ki values for each entry.
Write the answer as a number in nM, unit excluded.

Recorded results for 3 compounds are shown here.
Cl.Cl.c1cnc2cc([C@@H]3CCCN3)oc2c1 [Example 2, dihydrochloride] : 76
CN1[C@@H]2CC[C@@H](C2)[C@H]1c1cc2nc(Cl)ccc2o1 [Example 44, dihydrochloride] : 5
Clc1cnc2oc([C@@H]3CCCN3)cc2c1 [Example 13, hydrochloride] : 4440

Next compound, please.
# returns recorded Ki (system: neuronal nicotinic acetylcholine receptors) for Clc1ccc2oc([C@H]3CCCN3)cc2n1 [Example 35, hydrochloride]
1.1

* * *

Each entry below carries its recorded pKi.
- tgt: neuronal nicotinic acetylcholine receptors
- experiment description: [3H]-cytisine ligand-receptor binding assay (crude synaptic membranes from whole rat brain)
- measurement conditions: Table 1; [3H]-cytisine 1.25 nM, 4° C., 60 min; Ki by Cheng and Prusoff; read-out: [^3 H]-Cyt Binding
Structures can show the parent of a compound that is named as a salt.
Lab note — pKi values are minus log10 of concentrations in M.

Completed entries (count: 3):
Clc1cnc2cc([C@H]3CCCN3)oc2c1 [Example 31, hydrochloride] : 8.01
CN1CCC[C@H]1c1cc2nc(Cl)ccc2o1 [Example 12] : 8.39
Cl.Cl.c1cnc2cc([C@H]3CCCN3)oc2c1 [Example 3, dihydrochloride] : 8.39

Need pKi of CN1CCC[C@@H]1c1cc2nc(Cl)c(Cl)cc2o1 [Example 40, hydrochloride] , thanks.
7.49

Repeat with CN1[C@@H]2CC[C@@H](C2)[C@H]1c1cc2ncccc2o1 [Example 42, dihydrochloride]
8.33
